- Measurement target: T1, human GLP-1 receptor (human, UniProt P43220 24-463)
- T1 construct: whole, on cells; also called hGLP-1R; hGLP1R
- Experiment summary: [125I]-GLP-1 competition SPA, hGLP-1R membranes
Assay metric: pKi
Numbers only, as −log10 of the molar value.

YXEGTXTSDYSIXLDEKAQXEFIXXLIEGGPSSGAPPPS (Aib2; αMeF(2F)6; αMeL13; K17((2-[2-(2-Amino-ethoxy)-ethoxy]-acetyl)2-(γ-Glu)-CO-(CH2)18-CO2H); Aib20; D-Glu24; αMeY25; C-terminal NH2) [Example 222] | 8.44
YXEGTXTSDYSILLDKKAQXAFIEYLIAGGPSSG (Aib2; αMeF6; K17((2-[2-(2-Amino-ethoxy)-ethoxy]-acetyl)2-(γ-Glu)-CO-(CH2)16-CO2H); Aib20; C-terminal NH2) [Example 309] | 8.98

Next item in the queue.
Fill in: pKi of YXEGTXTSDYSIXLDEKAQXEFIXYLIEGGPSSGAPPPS (Aib2; αMeF6; αMeL13; K17((2-[2-(2-Amino-ethoxy)-ethoxy]-acetyl)2-(γ-Glu)-CO-(CH2)16-CO2H); Aib20; D-Glu24; C-terminal NH2) [Example 213] is ___
8.56
